Source: patent US12202826B2

For each of the compounds below, state its pIC50.
Test system: L-Wnt cells (murine Wnt-3a) / Leading Light Wnt Reporter Cells (luciferase under control of Wnt pathway response elements)
Experiment: Dual-Cell β-Catenin Reporter Assay
Assay type: cell-based, Mouse
Settings: category of IC50; luciferase signal reduced to 50% of DMSO control
pIC50: −log10 of the molar value.

compound: Cc1c(-c2ccnc(C(F)(F)F)c2)ncn1CC(=O)Nc1ccc(-c2ncccn2)cn1
assay endpoint: pIC50
reported: > 8.30
//
compound: O=C(Cn1cnc(C2=CCNCC2)c1)Nc1ccc(-c2cnccn2)cn1
assay endpoint: pIC50
reported: < 7.00
//
compound: Cc1nn(CC(=O)Nc2ccc(-c3cncnc3)cn2)c(C)c1-c1ccc(N(C)C)nc1
assay endpoint: pIC50
reported: 7.00 to 8.30
//
compound: Cc1nn(CC(=O)Nc2ccc(-c3cnccn3)cn2)c(C)c1-c1ccnc(N)c1
assay endpoint: pIC50
reported: 7.00 to 8.30
//
compound: Cn1nccc1-c1cn(CC(=O)Nc2ccc(-c3cnccn3)cn2)cn1
assay endpoint: pIC50
reported: < 7.00
//
compound: Cc1nn(CC(=O)Nc2ccc(-c3cncnc3)cn2)c(C)c1C1=CC(C)OC(C)C1 (centres unmarked)
assay endpoint: pIC50
reported: > 8.30
//
compound: Cc1ncsc1-c1cnn(CC(=O)Nc2ccc(-c3cnccn3)cn2)c1
assay endpoint: pIC50
reported: 7.00 to 8.30
//
compound: O=C(Cn1cc(-c2ccnc(C(F)(F)F)c2)cn1)Nc1ccc(-c2cnccn2)cn1
assay endpoint: pIC50
reported: > 8.30
//
compound: Cc1nn(CC(=O)Nc2ccc(-c3ncccn3)cn2)c(C)c1C1CC(C)OC(C)C1 (centres unmarked)
assay endpoint: pIC50
reported: 7.00 to 8.30
//
compound: Cc1cc(-c2csc(CC(=O)Nc3ccc(-c4cnccn4)cn3)c2)ccn1
assay endpoint: pIC50
reported: > 8.30

Return reported pIC50 values for all items listed beneath this line.
1. Cc1nn(CC(=O)Nc2ccc(-c3cnccn3)cn2)c(C)c1C1CCOCC1
2. Cc1nn(CC(=O)Nc2ncc(-c3cnccn3)cc2F)c(C)c1-c1ccnc(C(F)(F)F)c1
3. Cc1nn(C(=O)C(C)(C)Nc2ccc(-c3cnccn3)cn2)c(C)c1C1=CCCOC1
4. Cc1nc(-c2ccnc(C(F)(F)F)c2)cn1CC(=O)Nc1ccc(-c2cnccn2)cn1
5. Cc1nn(CC(=O)Nc2ccc(-c3cnccn3)cn2)c(C)c1-c1cc(N(C)C)nc(C(F)(F)F)n1
6. Cc1nn(CC(=O)Nc2ccc(-c3cncnc3)cn2)c(C)c1-c1ccnc(C(F)(F)F)c1
7. Cc1c(-c2ccnc(C(F)(F)F)c2)ncn1CC(=O)Nc1ccc(-c2cccnc2)cn1

RESULT:
> 8.30
7.00 to 8.30
7.00 to 8.30
> 8.30
> 8.30
> 8.30
> 8.30
